- assaySystem: [V390I/Y410E/E274V]-CfEcR (Choristoneura fumiferana)
- Construct: assay construct b835
- Assay type: cell-based
- conditionContext: R, 3T3 Cells
- Description: Cellular gene switch assays were performed by transiently transfecting the following constructs in mouse embryonic fibroblast cells (NIH3T3). […] NIH3T3 cells were maintained at 37′C and 5% CO2 in Dulbecco's modified Eagle's medium (DMEM) supplemented with 10% bovine calf serum, both obtained from Mediatech Inc., Manassas, Va. […] EC50 values were measured minimally in duplicate. […]
measuredEndpoint: pEC50
Please report pEC50 as the negative decimal logarithm of the molar concentration, giving only the number.

| moleculeSmiles | pEC50 |
| --- | --- |
| C=CC[C@H](C1CCCCC1)N(NC(=O)c1cccc(OC)c1C)C(=O)c1cc(C)c(OC)c(C)c1 | 5.99 |

Complete the entry with pEC50 for C=CC[C@@H](CCc1ccccc1)N(NC(=O)c1ccc(CC)cc1)C(=O)c1cc(C)cc(C)c1
5.70
